What IC50 was measured for each of the following?
System: HeLa
Test: Antiproliferative activity against human HeLa cells incubated for 72 hrs by MTT assay
Format: functional, cell-based
Settings: Homo sapiens, HeLa, 72 h
# value in µM; strip the unit string

query: Reported IC50 for O=c1[nH]cc(F)c(=O)[nH]1 : what is it?
result: 66.5

query: Which value of IC50 has been reported for O=C1O/C(=C\Cn2cc(I)c3c(Cl)ncnc32)C(OCc2ccccc2)=C1OCc1ccccc1 (mixture of isomers) in the records?
result: 65

query: Endpoint output: IC50 of O=C1NC(O)(CCn2cnc3ccnc(Cl)c32)C(OCc2ccccc2)=C1OCc1ccccc1 (stereo not drawn) . Value?
result: 21

query: Any idea what IC50 was measured for O=C1O/C(=C\Cn2cnc3ncc(Br)c-3c2)C(OCc2ccccc2)=C1OCc1ccccc1 (mixture of isomers) ?
result: 17

query: Name the reported IC50 value associated with the compound O=C1O/C(=C\Cn2cnc3ccn(C/C=C4\OC(=O)C(OCc5ccccc5)=C4OCc4ccccc4)c3c2=O)C(OCc2ccccc2)=C1OCc1ccccc1
result: 5.6

* * *

Please respond with reported IC50 for every item in the list.
System: SW-620
Assay: Antiproliferative activity against human SW620 cells incubated for 72 hrs by MTT assay
Assay type: functional, cell-based
Details: Homo sapiens, SW-620, 72 h

query: What value of IC50 has been reported for the following compound? O=C1O/C(=C\Cn2cnc3cc[nH]c3c2=O)C(OCc2ccccc2)=C1OCc1ccccc1
result: > 100 µM

query: Recorded IC50 of O=C1NC(O)(CCn2cnc3cncc(Br)c32)C(OCc2ccccc2)=C1OCc1ccccc1 (stereo unspecified) , please.
result: > 100 µM

query: What does the data say about its IC50? Entry: O=C1NC(O)(CCn2cnc3ccnc(Cl)c32)C(OCc2ccccc2)=C1OCc1ccccc1 (stereo unspecified)
result: > 100 µM

query: Looking for the measured IC50 of O=C1O/C(=C\Cn2cc(I)c3c(Cl)ncnc32)C(OCc2ccccc2)=C1OCc1ccccc1 (mixture of isomers) , can you help?
result: > 100 µM

query: Quick check: IC50 of O=C1O/C(=C\Cn2cnc3ncc(Br)c-3c2)C(OCc2ccccc2)=C1OCc1ccccc1 (mixture of isomers) ?
result: > 100 µM

query: # lookup: IC50 of O=C1O/C(=C\Cn2cnc3ccnc(Cl)c32)C(OCc2ccccc2)=C1OCc1ccccc1 (mixture of isomers)
result: > 100 µM

* * *

Field: pIC50. Provide a value for each of the compounds that follow.
System: HeLa
Assay: Antiproliferative activity against human HeLa cells incubated for 72 hrs by MTT assay
Type: functional, cell-based
Conditions: Homo sapiens, HeLa, 72 h
pIC50: −log10 of the molar value.

query: For HeLa, provide pIC50 of O=C1NC(O)(/C=C\n2cc(I)c3c(Cl)ncnc32)C(OCc2ccccc2)=C1OCc1ccccc1 (stereo not drawn) please.
result: < 3.60

query: # query: pIC50 | item O=C1O/C(=C\Cn2cnc3c(F)nc(F)c(Cl)c32)C(OCc2ccccc2)=C1OCc1ccccc1 | system: HeLa
result: < 4.00

query: GET /values?readout=pIC50&system=HeLa&item= O=C1O/C(=C\Cn2cnc3c(Cl)c(F)nc(F)c32)C(O)=C1O (mixture of isomers)
result: < 4.00

Taken from ChEMBL document CHEMBL3627667.
